- ASSAY_TARGET: human IL-17A / human IL-17RA (Homo sapiens (Human), UniProt Q16552)
- Sequence (Q16552 24-155): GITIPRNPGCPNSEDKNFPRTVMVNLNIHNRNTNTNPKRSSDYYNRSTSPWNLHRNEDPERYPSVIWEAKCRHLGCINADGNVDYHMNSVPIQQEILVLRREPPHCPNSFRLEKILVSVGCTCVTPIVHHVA
- MEASUREMENT_DESCRIPTION: Human IL-17A biochemical assay (HTRF, blocking of IL-17A binding to IL-17RA)
- CONDITION_LABEL: 0.4 nM IL-17A, 0.3 nM IL-17RA, max compound concentration 10 uM
MEASUREMENT_KIND: IC50

INSERT INTO measurements (compound, reported_measurement) VALUES
  ('CNC(=O)C1(N2CC(C)NC2=O)COc2ccc(NC(=O)[C@@H](NC(=O)c3ccnn3C)C3CCCCC3)cc2OC1 (stereo partly drawn)', '17000 nM'),
  ('CC(C)[C@@H]1CN(C2(C(=O)Nc3ccccc3)Cc3ccc(NC(=O)[C@@H](NC(=O)c4ccnn4C(C)C)C(C4CC4)C4CC4)cc3C2)C(=O)N1 (stereo partly drawn)', '229 nM'),
  ('Cn1nccc1C(=O)N[C@H](C(=O)Nc1ccc2c(c1)CC(N1C[C@@H](C(F)(F)F)NC1=O)C2)C1CCCCC1 (stereo partly drawn)', '204 nM');

###

- ASSAY_TARGET: human IL-17A / human IL-17RA (Homo sapiens (Human))
- MEASUREMENT_DESCRIPTION: Human IL-17A biochemical assay (HTRF, blocking of IL-17A binding to IL-17RA)
- CONDITION_LABEL: 0.4 nM IL-17A, 0.3 nM IL-17RA, max compound concentration 10 uM
MEASUREMENT_KIND: log10(IC50) (log10 of the value in nM)

INSERT INTO assay_data (molecule, reported_measurement) VALUES
  ('Cn1nccc1C(=O)N[C@H](C(=O)Nc1ccc2c(c1)CC(C(O)C(F)(F)F)(N1CC3(CC3)CNC1=O)C2)C1CCCCC1 (stereo partly drawn)', 1.53),
  ('Cc1nonc1C(=O)N[C@H](C(=O)Nc1ccc2c(c1)CC(C(C)C)(N1CC(C(F)(F)F)NC1=O)C2)C(C1CC1)C1CC1 (stereo partly drawn)', 2.84),
  ('CNC(=O)C1(N2C[C@@H](Cc3cccs3)NC2=O)Cc2ccc(NC(=O)[C@@H](NC(=O)c3ccnn3C)C3CCCCC3)cc2C1 (stereo partly drawn)', 2.52),
  ('CNC(=O)C1(N2CC3(CC3)CNC2=O)Cc2ccc(NC(=O)[C@@H](NC(=O)c3c(F)cnn3C)C3CCCCC3)cc2C1 (stereo partly drawn)', 2.10),
  ('CNC(=O)C1(N2C[C@@H](C(C)C)NC2=O)Cc2ccc(NC(=O)[C@H](Cc3cc(-c4ccnc(C(C)(C)O)c4)ccc3Cl)NC(=O)c3ccnn3C)cc2C1 (stereo partly drawn)', 1.90),
  ('Cc1nonc1C(=O)N[C@H](C(=O)Nc1ccc2c(c1)OC(CN1C[C@@H](C(F)(F)F)NC1=O)C2)C(C1CC1)C1CC1 (stereo partly drawn)', 2.22),
  ('CCC1(C)CNC(=O)N(C2(C(=O)NC)Cc3ccc(NC(=O)[C@@H](NC(=O)c4ccnn4C)C4CCCCC4)cc3C2)C1 (stereo partly drawn)', 1.18),
  ('CNC(=O)C1(N2C[C@@H](C(C)C)NC2=O)Cc2ccc(NC(=O)[C@@H](NC(=O)c3ccnn3C)C3CCCCC3)cc2C1 (stereo partly drawn)', 1.35),
  ('Cc1nonc1C(=O)N[C@H](C(=O)Nc1ccc2c(c1)CC(C(=O)Nc1ccccc1)(N1C[C@@H](C(C)C)NC1=O)C2)C(C1CC1)C1CC1 (stereo partly drawn)', 2.53),
  ('CNC(=O)C1(N2C[C@@H](C(C)C)NC2=O)Cc2ccc(NC(=O)[C@@H](NC(=O)c3ccnn3C(C)C)C3CCCCC3)cc2C1 (stereo partly drawn)', 1.97),
  ('CNC(=O)C1(N2CC(Cc3ccccc3)CNC2=O)Cc2ccc(NC(=O)[C@@H](NC(=O)c3ccnn3C)C3CCCCC3)cc2C1 (stereo partly drawn)', 2.44),
  ('CC(C)n1nccc1C(=O)N[C@H](C(=O)Nc1ccc2c(c1)CC(c1nc3cccc(C(F)(F)F)c3[nH]1)(N1CC3(CC3)CNC1=O)C2)C(C1CC1)C1CC1 (stereo partly drawn)', 3.05);

###

- ASSAY_TARGET: human IL-17A / human IL-17RA (Homo sapiens (Human), UniProt Q16552)
- MEASUREMENT_DESCRIPTION: Human IL-17A biochemical assay (HTRF, blocking of IL-17A binding to IL-17RA)
- CONDITION_LABEL: 0.4 nM IL-17A, 0.3 nM IL-17RA, max compound concentration 10 uM
Assign labels as follows, please: condition met for IC50 below 300 nM; condition not met for IC50 equal to or exceeding 300 nM.

INSERT INTO results (molecule, qualitative_label) VALUES
  ('CNC(=O)C1(N2CC(C)NC2=O)CCc2cc(NC(=O)[C@@H](NC(=O)c3ccnn3C)C3CCCCC3)ccc21 (stereo partly shown)', 'condition not met'),
  ('CNC(=O)C1(N2CC(CC3CCCCC3)NC2=O)Cc2ccc(NC(=O)[C@@H](NC(=O)c3ccnn3C)C3CCCCC3)cc2C1 (stereo partly shown)', 'condition not met'),
  ('Cc1nonc1C(=O)N[C@H](C(=O)Nc1ccc2c(c1)CC(C(=O)Nc1cc(F)ccc1Cl)(N1C[C@@H](C(C)C)NC1=O)C2)C(C1CC1)C1CC1 (stereo partly shown)', 'condition not met'),
  ('CNC(=O)C1(N2CC3(CC3)CNC2=O)Cc2ccc(NC(=O)[C@@H](NC(=O)c3ccnn3C3CC3)C3CCCCC3)cc2C1 (stereo partly shown)', 'condition met'),
  ('CNC(=O)C1(N2CC3(CC3)CNC2=O)CCc2cc(NC(=O)[C@@H](NC(=O)c3ccnn3C)C3CCCCC3)sc2C1 (stereo partly shown)', 'condition met'),
  ('CNC(=O)C1(N2C[C@@H](C(C)C)NC2=O)Cc2ccc(NC(=O)C(NC(=O)c3ccnn3C)C3CCC(OC)CC3)cc2C1 (stereo partly shown)', 'condition not met'),
  ('Cc1nonc1C(=O)N[C@H](C(=O)Nc1ccc2c(c1)CC(c1c[nH]c(C3CC3)n1)(N1C[C@@H](C(C)C)NC1=O)C2)C(C1CC1)C1CC1 (stereo partly shown)', 'condition not met'),
  ('CNC(=O)C1(N2CC(C(C)c3ccccc3)NC2=O)Cc2ccc(NC(=O)[C@@H](NC(=O)c3ccnn3C)C3CCCCC3)cc2C1 (stereo partly shown)', 'condition met'),
  ('Cc1nonc1C(=O)N[C@H](C(=O)Nc1ccc2c(c1)CC(C(=O)Nc1ccccc1C(F)F)(N1C[C@@H](C(C)C)NC1=O)C2)C(C1CC1)C1CC1 (stereo partly shown)', 'condition met'),
  ('CC(C)[C@@H]1CN(C2(C(=O)N(C)C)Cc3ccc(NC(=O)[C@@H](NC(=O)c4ccnn4C)C4CCCCC4)cc3C2)C(=O)N1 (stereo partly shown)', 'condition met'),
  ('Cc1cccc(NC(=O)C2(N3CC4(CC4)CNC3=O)Cc3ccc(NC(=O)[C@@H](NC(=O)c4nonc4C)C4CCC(F)(F)CC4)cc3C2)c1 (stereo partly shown)', 'condition met'),
  ('CC(C)[C@@H]1CN(C2(C(=O)N[C@@H](CO)C3CCCCC3)Cc3ccc(NC(=O)[C@@H](NC(=O)c4ccnn4C)C4CCCCC4)cc3C2)C(=O)N1 (stereo partly shown)', 'condition met'),
  ('CNC(=O)C1(N2CC3(CC3)CNC2=O)Cc2ccc(NC(=O)C(NC(=O)c3ccnn3C)C3CCC(C(F)(F)F)CC3)cc2C1 (stereo not shown)', 'condition met'),
  ('CNC(=O)C1(N2CC(C)(C3CC3)CNC2=O)Cc2ccc(NC(=O)[C@@H](NC(=O)c3ccnn3C)C3CCCCC3)cc2C1 (stereo partly shown)', 'condition met'),
  ('CC(C)[C@@H]1CC(C2Cc3ccc(NC(=O)[C@@H](NC(=O)c4ccnn4C)C4CCCCC4)cc3C2)C(=O)N1 (stereo partly shown)', 'condition not met'),
  ('Cc1nonc1C(=O)N[C@H](C(=O)Nc1ccc2c(c1)CC(c1nc(-c3ccccc3)c[nH]1)(N1CC3(CC3)CNC1=O)C2)C1CCC(F)(F)CC1 (stereo partly shown)', 'condition met'),
  ('Cc1conc1C(=O)N[C@H](C(=O)Nc1ccc2c(c1)CC(N1C[C@@H](C(F)(F)F)NC1=O)C2)C(C1CC1)C1CC1 (stereo partly shown)', 'condition not met'),
  ('CNC(=O)C1(N2C[C@@H](C(C)C)NC2=O)Cc2ccc(NC(=O)[C@@H](NC(=O)c3cnn(C)c3)C3CCCCC3)cc2C1 (stereo partly shown)', 'condition not met'),
  ('CNC(=O)C1(N2CC(C)NC2=O)CCc2ccc(NC(=O)[C@@H](NC(=O)c3ccnn3C)C3CCCCC3)cc2CC1 (stereo partly shown)', 'condition not met'),
  ('CNC(=O)C1(N2C(=O)NC3CCC2C3)Cc2ccc(NC(=O)[C@@H](NC(=O)c3ccnn3C)C3CCCCC3)cc2C1 (stereo partly shown)', 'condition met'),
  ('CC(C)[C@@H]1CN(C2(c3nc4ccccc4[nH]3)Cc3ccc(NC(=O)[C@@H](NC(=O)c4ccnn4C)C4CCCCC4)cc3C2)C(=O)N1 (stereo partly shown)', 'condition met'),
  ('COC(=O)C1(N2CC3(CC3)CNC2=O)Cc2ccc(NC(=O)C(NC(=O)c3ccnn3C)C3CCC(C(C)C)CC3)cc2C1 (stereo not shown)', 'condition met'),
  ('CNC(=O)C1(N2C[C@@H](C3CC3)NC2=O)Cc2ccc(NC(=O)[C@@H](NC(=O)c3ccnn3C)C3CCCCC3)cc2C1 (stereo partly shown)', 'condition met'),
  ('CC(C)[C@@H]1CN(CC2Cc3ccc(NC(=O)[C@@H](NC(=O)c4ccnn4C(C)C)C(C4CC4)C4CC4)cc3N2C)C(=O)N1 (stereo partly shown)', 'condition met'),
  ('CNC(=O)C1(N2CC3(CC3)CNC2=O)Cc2ccc(NC(=O)[C@@H](NC(=O)C(F)(F)c3cccc(C#N)c3)C3CCCCC3)cc2C1 (stereo partly shown)', 'condition met');
